Test system: E-selectin mRNA
PROTOCOL: ELISA of E-selectin expression in HUVECs
Type: cell-based, human
CONDITION: HUVECs, ELISA, equivalent (second) experiment; read-out: IC50 for reduction of E-selectin expression
Strand notation (5' to 3'): a small letter for the sugar, then the base; units joined by * are phosphorothioate-linked, units joined directly phosphodiester-linked; [ ] holds rarer units or linkages, { } end groups; capitals alone tell only the bases. [PRP] = 2'-O-propyl ribonucleoside; d = 2'-deoxy (DNA); m = 2'-O-methyl
QUANTITY: IC50 (nM)
Give just the numeric value; nM need not be written.

ISIS 4764: SEQ ID NO: 3, P═S deoxy; E-selectin 5′ cap (dG*dA*dA*dG*dT*dC*dA*dG*dC*dC*dA*dA*dG*dA*dA*dC*dA*dG*dC*dT) : 10
ISIS 9218: SEQ ID NO: 3, P═S all 2′-O-propyl except 3′ nt is deoxy; E-selectin 5′ cap (GAAGTCAGCCAAGAACAGCT; sugars from the 5' end [PRP]19 d1, all phosphorothioate, methylation of C not given here) : 25

Kindly consider the entry below.
Entry ISIS 14043: SEQ ID NO: 3, P═S all 2′-O-methyl except 3′ nt is deoxy, all C's 5meC; E-selectin 5′ cap (GAAGTCAGCCAAGAACAGCT; sugars from the 5' end m19 d1, all C 5-methyl, all phosphorothioate, T or U not given here) ; assay system E-selectin mRNA; IC50 recorded at 10

---

Readings of pIC50 for the listed substances
Tested on: VCAM-1 mRNA
PROTOCOL: ELISA of VCAM-1 expression in HUVECs
Format: cell-based, human
CONDITION: FIG. 6 experiment, read-out: IC50 for inhibition of VCAM-1 expression
pIC50: −log10 of the molar value. Strand notation (5' to 3'): a small letter for the sugar, then the base; units joined by * are phosphorothioate-linked, units joined directly phosphodiester-linked; [ ] holds rarer units or linkages, { } end groups; capitals alone tell only the bases. e = 2'-O-(2-methoxyethyl) (MOE); [5mC] = 5-methylcytosine; d = 2'-deoxy (DNA); f = 2'-fluoro

ISIS 5884: CGATGCAGATACCGCGGAGT (SEQ ID NO: 15), P═S deoxy; VCAM-1 n.t. 1-20 (dC*dG*dA*dT*dG*dC*dA*dG*dA*dT*dA*dC*dC*dG*dC*dG*dG*dA*dG*dT) : 7.92 to 8.00
ISIS 13183: SEQ ID NO: 15, P═O all 2′-MOE, all C's are 5meC; VCAM-1 n.t. 1-20 (antisense e[5mC]eGeAeTeGe[5mC]eAeGeAeTeAe[5mC]e[5mC]eGe[5mC]eGeGeAeGdT) : > 8.00
ISIS 13182: SEQ ID NO: 15, P═S all 2′-MOE, all C's are 5meC; VCAM-1 n.t. 1-20 (antisense e[5mC]*eG*eA*eT*eG*e[5mC]*eA*eG*eA*eT*eA*e[5mC]*e[5mC]*eG*e[5mC]*eG*eG*eA*eG*dT) : > 8.00

Turning now to a further substance:
Form field pIC50, entry ISIS 13181: SEQ ID NO: 15 sequence, P═S all 2′ F; VCAM-1 n.t. 1-20 (antisense CGATGCAGATACCGCGGAGT; sugars from the 5' end f19 d1, all phosphorothioate, T or U not given here) : > 8.00

---

Tested on: E-selectin mRNA
PROTOCOL: ELISA of E-selectin expression in HUVECs
Format: cell-based, human
CONDITION: HUVECs, FIG. 3 experiment; read-out: IC50 for inhibition of E-selectin expression
Strand notation (5' to 3'): a small letter for the sugar, then the base; units joined by * are phosphorothioate-linked, units joined directly phosphodiester-linked; [ ] holds rarer units or linkages, { } end groups; capitals alone tell only the bases. d = 2'-deoxy (DNA)
QUANTITY: IC50

Record ISIS 4764: SEQ ID NO: 3, P═S deoxy; E-selectin 5′ cap (dG*dA*dA*dG*dT*dC*dA*dG*dC*dC*dA*dA*dG*dA*dA*dC*dA*dG*dC*dT) . Reported IC50: < 0.01 µM

---

Test system: E-selectin mRNA
PROTOCOL: ELISA of E-selectin expression in HUVECs
Format: cell-based, human
CONDITION: HUVECs, ELISA, FIG. 5 experiment; read-out: IC50 for reduction of E-selectin expression
Strand notation (5' to 3'): a small letter for the sugar, then the base; units joined by * are phosphorothioate-linked, units joined directly phosphodiester-linked; [ ] holds rarer units or linkages, { } end groups; capitals alone tell only the bases. e = 2'-O-(2-methoxyethyl) (MOE); [5mC] = 5-methylcytosine; d = 2'-deoxy (DNA); f = 2'-fluoro
QUANTITY: IC50

ISIS 4764: SEQ ID NO: 3, P═S deoxy; E-selectin 5′ cap (dG*dA*dA*dG*dT*dC*dA*dG*dC*dC*dA*dA*dG*dA*dA*dC*dA*dG*dC*dT) : ~10 nM

response.value for ISIS 11928: SEQ ID NO: 3, P═S all 2′-MOE except 3′ nt is deoxy, all C's 5meC; E-selectin 5′ cap (antisense eG*eA*eA*eG*eT*e[5mC]*eA*eG*e[5mC]*e[5mC]*eA*eA*eG*eA*eA*e[5mC]*eA*eG*e[5mC]*dT) (field: IC50) = < 3 nM

get_value(item= ISIS 11929: SEQ ID NO: 3, P═O all 2′-MOE except 3′ nt is deoxy, all C's 5meC; E-selectin 5′ cap (antisense eGeAeAeGeTe[5mC]eAeGe[5mC]e[5mC]eAeAeGeAeAe[5mC]eAeGe[5mC]dT) , readout=IC50) returns < 3 nM

Record ISIS 11205: SEQ ID NO: 3, P═S all 2′ F except 3′ nt is deoxy, all C's 5meC; E-selectin 5′ cap (antisense GAAGTCAGCCAAGAACAGCT; sugars from the 5' end f19 d1, all C 5-methyl, all phosphorothioate, T or U not given here) , field IC50: < 3 nM

---

Quick reference for log10 of IC50 among some substances
System: ICAM-1 mRNA
PROTOCOL: Cell surface ICAM-1 expression in U937 cells after electroporation of MMI oligomers
Assay type: cell-based, human
CONDITION: six concentrations 4 to 40 μM, N.A. = IC50 not obtained in the given dose range, read-out: Antisense activity (IC50) Electroporate
[MMI] = methylene(methylimino) internucleoside backbone linkage
Note the log scale: values are log10 of IC50 expressed in µM.

ISIS 14295: A*GT*AG*CA*GA*GG*AG*CT*C (SEQ ID NO: 13), alternating P═S/MMI; ICAM-1 n.t. 1-16 (AGTAGCAGAGGAGCTC; chemistry not fully specified) : 1.54
ISIS 14290: T*GA*GT*AG*CA*GA*GG*AG*CT*C (SEQ ID NO: 12), alternating P═O/MMI; ICAM-1 n.t. 1-18 (TGAGTAGCAGAGGAGCTC; linkages [MMI]o[MMI]o[MMI]o[MMI]o[MMI]o[MMI]o[MMI]o[MMI]o[MMI] (s phosphorothioate, o phosphodiester), sugars by position and methylation of C not given here; 3'-terminal nucleotide 2'-deoxy, non-terminal cytosines 5-methylated) : 0.85
ISIS 14293: T*CT*GA*GT*AG*CA*GA*GG*AG*CT*C (SEQ ID NO: 1), alternating P═S/MMI; ICAM-1 n.t. 1-20 (TCTGAGTAGCAGAGGAGCTC; linkages [MMI]s[MMI]s[MMI]s[MMI]s[MMI]s[MMI]s[MMI]s[MMI]s[MMI]s[MMI] (s phosphorothioate, o phosphodiester), sugars by position and methylation of C not given here; 3'-terminal nucleotide 2'-deoxy, non-terminal cytosines 5-methylated) : 1.51

Entry ISIS 14292: T*AG*CA*GA*GG*AG*CT*C (SEQ ID NO: 14), alternating P═O/MMI; ICAM-1 n.t. 1-14 (TAGCAGAGGAGCTC; linkages [MMI]o[MMI]o[MMI]o[MMI]o[MMI]o[MMI]o[MMI] (s phosphorothioate, o phosphodiester), sugars by position and methylation of C not given here; 3'-terminal nucleotide 2'-deoxy, non-terminal cytosines 5-methylated) ; assay system ICAM-1 mRNA; log10 of IC50 recorded at 1.18

Readout log10 of IC50 for ISIS 14294: T*GA*GT*AG*CA*GA*GG*AG*CT*C (SEQ ID NO: 12), alternating P═S/MMI; ICAM-1 n.t. 1-18 (TGAGTAGCAGAGGAGCTC; linkages [MMI]s[MMI]s[MMI]s[MMI]s[MMI]s[MMI]s[MMI]s[MMI]s[MMI] (s phosphorothioate, o phosphodiester), sugars by position and methylation of C not given here; 3'-terminal nucleotide 2'-deoxy, non-terminal cytosines 5-methylated) , test system ICAM-1 mRNA, was 1.30

ISIS 11158: SEQ ID NO: 1, 2′-methoxyethoxy, phosphodiester (P═O); targeted to ICAM-1 5′ cap (antisense TCTGAGTAGCAGAGGAGCTC; all 2'-MOE, all phosphodiester, methylation of C not given here) on ICAM-1 mRNA gives log10 of IC50 = 0.00
